Exercise: for every item that follows, state its recorded melting point.
Numbers only, in °C.

Sample answers from the record:
COC(=O)c1ccc(Cn2c(=O)c(C#N)c(N3CCN(C(=O)c4cccs4)CC3)c3cscc32)cc1 [Compound 50] | 263
CCOC(=O)c1c(N2CCN(C(=O)c3cccs3)CC2)c2sccc2n(CC(=O)c2ccccc2)c1=O [Compound 7] | 240
CCOC(=O)c1c(N2CCN(C(=O)c3ccco3)CC2)c2sccc2n(CC(=O)c2ccccc2)c1=O [Compound 13] | 246

Query :: Recorded melting point for N#Cc1c(N2CCN(C(=O)c3cccs3)CC2)c2sccc2n(CC(=O)c2ccccc2)c1=O [Compound 30] , please?
Result :: 300
